Form field: SPOT intensity (one value per entry).
Target: T1, Cyk3, Q07533
T1 sequence (Q07533 1-83, looked up): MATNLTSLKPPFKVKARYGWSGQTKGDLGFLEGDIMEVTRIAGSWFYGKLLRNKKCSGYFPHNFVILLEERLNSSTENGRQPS
Test: SPOT array
Details: median of control spots 1451

{"binder": "RPVPRRPSQPLNTLS", "SPOT intensity": 1}
{"binder": "SKIRPTPRKPSRMAT", "SPOT intensity": 6}
{"binder": "RRLRDKYKLPIVDAD", "SPOT intensity": 1}
{"binder": "KIRRSSLMIPNPQQF", "SPOT intensity": 2}
{"binder": "QRIRKIPGIPLMSVG", "SPOT intensity": 2}
{"binder": "VNIPSPSSSPPPIPK", "SPOT intensity": 0}
{"binder": "DKKTKPTPPPKPSHL", "SPOT intensity": 0}

Provenance of the data: paper PMC2756588
